# target_or_system: binding partner of C5A (XPA23)
# protocol_text: Biacore K-off
quantity: fold difference in affinity vs original (fold)
Write the number in fold without appending the unit.

>  <binder>
C5A (XPA23) VH F33G (antibody, V domains shown) VH: EVQLLESGGGLVQPGGSLRLSCAASGFTFSKYGMFWVRQAPGKGLEWVSVISPSGGMTRYADSVKGRFTISRDNSKNTLYLQMNSLRAEDTAVYYCARVGYGGNSDYWGQGTLVTVSS VL: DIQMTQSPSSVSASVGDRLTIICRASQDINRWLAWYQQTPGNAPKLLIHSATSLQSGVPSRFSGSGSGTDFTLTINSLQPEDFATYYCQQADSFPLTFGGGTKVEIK

>  <quantity>
fold difference in affinity vs original

>  <units_text>
fold

>  <observed_measurement>
0.76

$$$$

Lab note: next binder to report on.
**Query** Could you tell me which fold difference in affinity vs original is on file for C5A (XPA23) VL N30Q (antibody, V domains shown) VH: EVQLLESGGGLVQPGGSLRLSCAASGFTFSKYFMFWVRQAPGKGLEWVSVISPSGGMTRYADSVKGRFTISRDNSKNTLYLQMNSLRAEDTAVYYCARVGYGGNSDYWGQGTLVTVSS VL: DIQMTQSPSSVSASVGDRLTIICRASQDIQRWLAWYQQTPGNAPKLLIHSATSLQSGVPSRFSGSGSGTDFTLTINSLQPEDFATYYCQQADSFPLTFGGGTKVEIK ?
**Result** 0.6
